Exercise: state measured geometric mean IC50, TZM-bl cell pseudovirus neutralization assay for each of the binders provided.
Target: HIV-1 envelope proteins of the panel of 12 global reference pseudovirus strains of HIV-1
Experiment: cell-based or functional assay

May I ask what geometric mean IC50, TZM-bl cell pseudovirus neutralization assay has been recorded for 04_A06 (antibody, V domains shown) VH: SVRLDQSGTAVKKPGASVRVSCRAPDSFTVYRPRLSAYFIGEFNIHWLRQAPGQGLEWLGFVNIFRGAVKYSSRFQGRITITRDTSSETSYLDLGALKADDTATYYCAWDKNVDDNPWRLDSWGQGTLVIVSS VL: YIQVTQSPSSLSASIGDTITVACEVSQDVGWAVNWYHQRPGRPPYNLIYTAHNLAPGVASRFRGSRVGTYFTLTINNLLPEDVGTYYCQVFDSFAPGGTRVDL ?
0.038 µg/mL

Check 04_B09 (antibody, V domains shown) VH: SVRLDQSGTAVKKPGASVRVSCRAPDSFTVYRPRLSAYFIGEFNIHWLRQAPGQGLEWLGFVNIFRGAVKYSSAFRGRITITRDTSLETSYLDLGALKPDDTATYFCAWDKNVDDNPWRLDSWGQGTLVVVSS VL: YIQVTQSPSSLSASVGDTITVACQVSQDVGWAVNWYHQRPGRPPYNLIYTTSNLAPGVASRFRGTRVATYFTLTINNLLPEDVGTYYCQVFESFAPGGTRVDLR too.
< 0.05 µg/mL

Check 01_B01 (antibody, V domains shown) VH: HVQLWQSGAEVKKPGASVKISCAAWGFGTTSGYSFRDYRIHWVRQVPGQGFQWMGHIQPRYGAVNYAHQFQGRITMTREVSFDASGGTAYMELRSLRSDDTATYYCVTHKLYDGEDASDLAWRLDPWGQGTRVTVSS VL: GVHLTQSPASLSASVGDRVTFTCQASQDITNAINWYQLRPGKTPKLMIHDGSTLRRGVPSRFAGGGFGTKFTFTIDNLQPEDLATYFCQHYEFFPPAGTQVELN too.
< 0.05 µg/mL

Check 05_C07 (antibody, V domains shown) VH: HVQLWQSGAEVKKPGASVKISCSAWGFGTRSGYTFRDYRIHWVRQVPRQGFEWMGHLHPAYGAVNYARQFQGRIIMTREVSFDGSGGTVYMELRSLRSDDTATYYCVTHKLYDGEDASDLTWRLDPWGQGTRVTVSS VL: GVSLTQSPASLCASVGDRVTFTCQASQDITNAINWYQLRPGKTPKLMIHDGSTLRRGVPSRFAGSGFGTRFTFTIDNLQPEDLATYFCQHYEFFPPAGTQVDFN too.
< 0.05 µg/mL

Check 01_D03 (antibody, V domains shown) VH: HVQLWQSGAEVKKPGASVKISCSAWGFGTTSGYSFRDYRVHWVRHIAGQGFQWMGHMQPRYGAVNYARQFQGRITMTREVSFDASGGTAYMELRSLRSDDTAVYYCVTHKLYDGEDASDLTWRLDPWGQGTRVIVSS VL: GVHLTQSPASLSASVGDRVTFTCQASQDITNAINWYQLRPGKTPKLMIHDGSTLRRGVPSRFAGSGFGTKFTFTIDNLQPEDLATYFCQHYEFFPPVGTQVELN too.
0.021 µg/mL
